# SIF values compiled below
- measurement-notes: Stability in Simulated Intestinal Fluid (SIF)
- Type: in vitro ADME
- Parameters: key: % parent compound remaining relative to 0-minute sample
- run-parameters: % @ 1 h (remaining) in simulated intestinal fluid
Provide only the numeric value, understood in % @ 1 h.

Consider the worked cases shown below.
[[record]]
record_smiles = "CC(C)OCCn1c(SCOC(=O)N(C)C)nc(=O)c2c1ccn2COC(=O)N(C)C"
scale_unit = "% @ 1 h"
meas_value = 99

[[record]]
record_smiles = "C=CCCN(C)C(=O)OCSc1nc(=O)c2[nH]ccc2n1CCOC(C)C.O=C(O)C(F)(F)F"
scale_unit = "% @ 1 h"
meas_value = 91

[[record]]
record_smiles = "CC(C)CN(C)C(=O)OCSc1nc(=O)c2c(ccn2COC(=O)N(C)CC(C)C)n1CCOC(C)C"
scale_unit = "% @ 1 h"
meas_value = 80

[[record]]
record_smiles = "CCN(C)C(=O)OCn1ccc2c1c(=O)nc(SCOC(=O)N(C)C(C)C)n2CCOC(C)C.O=C(O)C(F)(F)F"
scale_unit = "% @ 1 h"
meas_value = 92


Looking up CC(C)OCCn1c(SCOC(=O)N(C)C(C)(C)C)nc(=O)c2c1ccn2COC(=O)N(C)C(C)(C)C.O=C(O)C(F)(F)F , I found its SIF recorded as 94

The value of SIF measured for the compound C=CCN(C)C(=O)OCSc1nc(=O)c2c(ccn2COC(=O)N(C)CC=C)n1CCOC(C)C.O=C(O)C(F)(F)F turned out to be 75

Field SIF (entry CC(=O)OCn1ccc2c1c(=O)[nH]c(=S)n2CCOC(C)C ) reads 83
